# assay.name: rotating rod test (ataxic effect)
# Format: in vivo, mice
# test.context: mouse, rotating rod test; mice; oral; 50% of animals show a typical ataxic effect; read-out: ED50, ataxic effect (rotating rod)
Please use Criterion met for TD50 under 80 mg/kg and Criterion not met for everything else, ties included.

Given the entry O=C1CN=C(c2ccccc2Cl)c2nc(Cl)ccc2N1 , would its reported TD50 be below 80 mg/kg?
Criterion met

# TODO verify TD50 < 80 mg/kg strictly for this compound: O=C1CN=C(c2ccccc2)c2nc(Cl)ccc2N1
Criterion met

Please determine if O=C1CN=C(c2ccccc2F)c2nc(Cl)ccc2N1 is below 80 mg/kg in terms of TD50.
Criterion met

I'd appreciate it if you could check whether CN1C(=O)CN=C(c2ccccc2)c2nc(Cl)ccc21 has TD50 smaller than 80 mg/kg.
Criterion met

Dear colleague, could you confirm whether TD50 of O=C1CN=C(c2ccccc2)c2nc(Cl)ccc2N1CC1CC1 falls below 80 mg/kg? Thanks.
Criterion met

Does this compound meet the criterion TD50 < 80 mg/kg? C=CCN1C(=O)CN=C(c2ccccc2)c2nc(Cl)ccc21
Criterion not met

In plain terms, does CN1C(=O)CN=C(c2ccccc2Cl)c2nc(Cl)ccc21 come in under 80 mg/kg for TD50?
Criterion met

Does CN1C(=S)CN=C(c2ccccc2Cl)c2nc(Cl)ccc21 have TD50 strictly under 80 mg/kg?
Criterion met

Take the compound O=C1Nc2ccc(Cl)nc2C(c2ccccc2Cl)=NC1O (stereo not shown) and say whether its TD50 is less than 80 mg/kg.
Criterion met

Dear colleague, could you confirm whether TD50 of O=C(O)CCC(=O)OC1N=C(c2ccccc2Cl)c2nc(Cl)ccc2NC1=O (stereo not shown) falls below 80 mg/kg? Thanks.
Criterion not met

Is TD50 strictly under 80 mg/kg for the entry CN1C(=O)CN=C(c2ccccc2F)c2nc(Cl)ccc21 ?
Criterion met

Given the entry CC(=O)OC1N=C(c2ccccc2Cl)c2nc(Cl)ccc2N(C(C)=O)C1=O (stereo not shown) , would its reported TD50 be below 80 mg/kg?
Criterion not met

The values you see were collected from patent US4008223A.
